Values compiled from ChEMBL document CHEMBL1145601.

Test system: Human immunodeficiency virus 1
procedure.details: Antiviral activity against HIV1 with RT Y181C mutation in human MT4 cells in presence of 10% fetal bovine serum
Assay type: functional
run.conditions: Human immunodeficiency virus 1, MT4; read-out: CIC95
I'd be grateful if you could share measured IC95 for these entries.
Numbers only, in nM.

CS(=O)(=O)c1ccc2c(c1)CCN2C(=O)COc1ccc(Cl)c(Oc2cc(Cl)cc(C#N)c2)c1; 14.3
Cc1cc(S(N)(=O)=O)ccc1NC(=O)COc1ccc(Cl)cc1C(=O)c1cc(Cl)cc(C#N)c1; 3.28
N#Cc1cc(Cl)cc(Oc2cc(OCC(=O)Nc3ccc(S(N)(=O)=O)cc3Cl)ccc2Cl)c1; 14.8

Kindly review the next compound as well.
For `N#Cc1cc(Cl)cc(Oc2cc(OCc3n[nH]c4ccccc34)ccc2Cl)c1` , what is its reported IC95?
102
